src = patent US20230414780A1

- target-or-system: T1, rhesus monkey TfR ectodomain fused to a mouse IgG1 Fc fragment (rhesus monkey, UniProt I0FKY7 89-760)
- T1 construct: extracellular domain; not shown: mouse IgG1 Fc fragment
- test-summary: SPR, kinetic
readout-kind: log10 of Kd (log10 of the value in nM)
Log10 applied to Kd; unit prior to transform: nM.

Example cases with answers are listed next.
binder	log10 of Kd
VHH B (B8) (VHH) VHH: EVQLVESGGGVVQPGGSLRLSCAASGEIFSINFMRWYRQAPGKQREWVAGFTRDGSTNYPDSAKGRFTISRDNAKNTVYLQIDSLKPEDTAVYYCYMLDTWGQGTQVTVSS	-1.02
B8^V29 (VHH) VHH: EVQLVESGGGVVQPGGSLRLSCAASGEIFSINFMRWYRQAPGKQREWVAGFTRDGSTNYPDSAKGRFTISRDNAKNTVYLQIDSLKPEDTAVYYCYMADTWGQGTQVTVSS	2.31

log10 of Kd reported for this binder B8^V32 (VHH) VHH: EVQLVESGGGVVQPGGSLRLSCAASGEIRSINFMRWYRQAPGKQREWVAGFTRDGSTNYPDSAKGRFTISRDNAKNTVYLQIDSLKPEDTAVYYCYMLDTWGQGTQVTVSS : 1.51

log10 of Kd reported for this binder B8^V12 (VHH) VHH: EVQLVESGGGVVQPGGSLRLSCAASGEIFYINFMRWYRQAPGKQREWVAGFTRDGSTNYPDSAKGRFTISRDNAKNTVYLQIDSLKPEDTAVYYCYMLDTWGQGTQVTVSS : 1.08

log10 of Kd reported for this binder VHH A (C5) (VHH, form with the C-terminal myc-His6 tag (x = 1), since the VHHs were detected with anti-6His or anti-cMyc; the same holds for m12 to m126) VHH: EVQLVESGGGVVQPGGSLKLSCVASGTDFSINFIRWYRQAPGKQREFVAGFTATGNTNYADSMKGRFTISRDNTKNAVYLQIDSLKPEDTAVYYCYMLDKWGQGTQVTVSS : 0.73

log10 of Kd reported for this binder H1 (VHH, also called phage-H1 (as tracer)) VHH: EVQLVESGGGLVQPGGSLRLSCAASGFASHLYAIGWFRQAPGKEREKVSCISSNDGSTYYADSVKGRFTISRDTVKDMVYLQMNSLKPEDTAVYYCATDLTVHCFMAEYDWWGQGTQVTVSS : 1.35

log10 of Kd reported for this binder B8^V27 (VHH) VHH: EVQLVESGGGVVQPGGSLRLSCAASGEIFSINFMRWYRQAPGKQREWVAGFTRDGSTVYPDSAKGRFTISRDNAKNTVYLQIDSLKPEDTAVYYCYMLDTWGQGTQVTVSS : 1.73

log10 of Kd reported for this binder B8^V16 (VHH) VHH: EVQLVESGGGVVQPGGSLRLSCAASGEIFSINFMRWYRQAPGKQREQVAGFTRDGSTNYPDSAKGRFTISRDNAKNTVYLQIDSLKPEDTAVYYCYMLDTWGQGTQVTVSS : 2.13
